Where do the numbers come from? From patent US12312355B2.

Target: CDK2/cyclin A2 (Homo sapiens (Human), UniProt P24941)
Test: Kinase activity assay, Caliper Mobility Shift Assay, CDK2/cyclin A2
Settings: class symbols
Where a name gives a salt, the structure may show the parent alone.
Listed next: entries and their corresponding IC50.

{"compound": "CC(C)n1nnc2ccc3cnc(Nc4ccc(N5CCOCC5)cc4F)nc3c21", "IC50": "50 to 100 nM"}
{"compound": "CCN1CCN(c2ccc(Nc3ncc4ccc5nnn(C(C)C)c5c4n3)cc2F)CC1 [Compound I-34, hydrochloride]", "IC50": "< 10 nM"}
{"compound": "COc1cc(N2CCNCC2)ccc1Nc1ncc2ccc3nnn(C(C)C)c3c2n1 [Compound I-30, hydrochloride]", "IC50": "< 10 nM"}
{"compound": "CC(C)n1nnc2ccc3cnc(Nc4ccc(C(=O)N5CCNCC5)cc4)nc3c21 [Compound I-39, hydrochloride]", "IC50": "< 10 nM"}
{"compound": "CC(C)n1nnc2ccc3cnc(Nc4ccc(N5CCN(C)CC5)c(F)c4)nc3c21", "IC50": "< 10 nM"}
{"compound": "CC(C)n1nnc2ccc3cnc(Nc4ccc(N(CCN5CCOCC5)S(C)(=O)=O)cc4)nc3c21", "IC50": "< 10 nM"}
{"compound": "COc1cc(N2CCN(C)CC2)ccc1Nc1ncc2ccc3nnn(C(C)C)c3c2n1", "IC50": "50 to 100 nM"}
{"compound": "CC(C)n1nnc2ccc3cnc(Nc4ccc(N5CCNCC5)cc4)nc3c21 [Compound I-24, hydrochloride]", "IC50": "< 10 nM"}
{"compound": "CCN1CCN(c2ccc(Nc3ncc4ccc5nnn(C(C)C)c5c4n3)cc2)CC1", "IC50": "< 10 nM"}
